Tested on: A673/TR/shEF
Test Description: cell viability (LOESS-normalised, relative to median of negative controls) (log2 ratio); higher = more viable cells (less compound effect), active = hit call of the paper (over 3 MAD below the median)
Conditions: 25 µM; library screen: screen3; EWS-FLI1 expression: high (no doxycycline); treatment time: 72 h
The campaign covered roughly 3,200 compounds. About 300 (9.4%) showed activity. For the sample, actives were picked, then their nearest neighbours and some compounds at random.
Use cell viability (log2) to assign classes; range list: class A = under -0.8, class B = from -0.8 up to 0.08, class C = 0.08 and over

INSERT INTO measurements (molecule, class_label) VALUES
  ('CN1CC[C@H](c2c(O)cc(O)c3c(=O)cc(-c4ccccc4Cl)oc23)[C@H](O)C1', 'class A'),
  ('Cc1cnc(C(=O)NCCc2ccc(S(=O)(=O)NC(=O)NC3CCCCC3)cc2)cn1', 'class C'),
  ('CC1(C)S[C@@H]2[C@H](NC(=O)[C@H](N)c3ccc(O)cc3)C(=O)N2[C@H]1C(=O)O', 'class B'),
  ('O=C(CCCCCCC(=O)Nc1ccccc1)NO', 'class A'),
  ('O=C(c1cc(Cc2n[nH]c(=O)c3ccccc23)ccc1F)N1CCN(C(=O)C2CC2)CC1', 'class B'),
  ('CS(=O)(=O)c1ccc(C(=O)Nc2ccc(Cl)c(-c3ccccn3)c2)c(Cl)c1', 'class B'),
  ('COc1ccc(Cl)cc1C(=O)NCCc1ccc(S(=O)(=O)NC(=O)NC2CCCCC2)cc1', 'class C'),
  ('CC1CC2C3CCC4=CC(=O)C=CC4(C)C3C(=O)CC2(C)[C@@]1(O)C(=O)CO (some centres undefined)', 'class B');
